test: Inhibition of Hsp40-stimulated yeast Hsp70 ATPase activity assessed as inhibition constant by single-turnover assay; parameters: species or system Saccharomyces cerevisiae
observable: Ki

• CCCCCCCCCCCCC/C=C/[C@@H](O)[C@H](COC1O[C@H](CO)[C@H](O)[C@H](OS(=O)(=O)O)[C@H]1O)NC(=O)CC12CC3CC(CC(C3)C1)C2 (stereo partly specified) = 10 µM
